# tested-target: MRP2 (ABCC2) (Homo sapiens, UniProt Q92887)
# Sequence (Q92887 whole entry): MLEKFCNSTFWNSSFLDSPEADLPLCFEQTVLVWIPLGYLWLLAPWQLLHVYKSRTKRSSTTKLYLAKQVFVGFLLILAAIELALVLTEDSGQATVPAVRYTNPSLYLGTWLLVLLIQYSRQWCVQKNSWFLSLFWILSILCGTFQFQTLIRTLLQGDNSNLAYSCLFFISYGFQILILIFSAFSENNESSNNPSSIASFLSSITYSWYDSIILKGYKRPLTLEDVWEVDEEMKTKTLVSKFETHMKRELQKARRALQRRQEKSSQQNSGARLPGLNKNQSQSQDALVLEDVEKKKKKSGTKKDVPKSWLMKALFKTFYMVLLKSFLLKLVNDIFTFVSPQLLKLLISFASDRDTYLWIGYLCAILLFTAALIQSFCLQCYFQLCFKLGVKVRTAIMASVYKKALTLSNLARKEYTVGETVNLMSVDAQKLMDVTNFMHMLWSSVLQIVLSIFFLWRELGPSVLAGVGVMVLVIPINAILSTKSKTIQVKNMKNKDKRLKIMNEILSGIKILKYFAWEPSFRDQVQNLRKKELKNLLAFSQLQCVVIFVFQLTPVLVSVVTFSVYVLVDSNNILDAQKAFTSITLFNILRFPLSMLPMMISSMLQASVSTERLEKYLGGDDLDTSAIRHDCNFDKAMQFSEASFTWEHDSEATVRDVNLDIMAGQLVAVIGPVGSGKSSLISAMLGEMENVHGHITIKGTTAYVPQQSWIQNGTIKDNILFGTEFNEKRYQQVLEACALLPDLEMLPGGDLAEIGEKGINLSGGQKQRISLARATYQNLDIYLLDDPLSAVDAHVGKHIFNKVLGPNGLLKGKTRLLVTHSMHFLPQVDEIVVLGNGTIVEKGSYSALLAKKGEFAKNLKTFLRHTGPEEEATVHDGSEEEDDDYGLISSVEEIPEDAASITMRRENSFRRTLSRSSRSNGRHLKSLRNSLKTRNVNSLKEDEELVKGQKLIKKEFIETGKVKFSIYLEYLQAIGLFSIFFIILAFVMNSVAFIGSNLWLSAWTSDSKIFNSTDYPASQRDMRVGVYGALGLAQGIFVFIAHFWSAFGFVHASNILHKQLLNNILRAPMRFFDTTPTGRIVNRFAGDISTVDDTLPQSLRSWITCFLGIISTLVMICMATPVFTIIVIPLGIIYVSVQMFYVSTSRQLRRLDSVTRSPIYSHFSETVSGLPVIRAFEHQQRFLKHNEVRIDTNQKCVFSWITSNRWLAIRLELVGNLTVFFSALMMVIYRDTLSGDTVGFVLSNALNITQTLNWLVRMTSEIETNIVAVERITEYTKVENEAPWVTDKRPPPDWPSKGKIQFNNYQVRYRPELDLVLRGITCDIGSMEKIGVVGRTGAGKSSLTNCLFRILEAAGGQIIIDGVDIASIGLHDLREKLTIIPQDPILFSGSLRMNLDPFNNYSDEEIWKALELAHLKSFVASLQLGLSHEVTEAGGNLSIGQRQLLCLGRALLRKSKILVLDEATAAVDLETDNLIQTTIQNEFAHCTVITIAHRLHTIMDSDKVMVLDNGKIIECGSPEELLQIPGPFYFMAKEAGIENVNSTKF
# assay-overview: in vitro
# test-context: dog, membrane vesicles from MRP2-expressing MDCK cells, probe DNP-SG
# Description: TP_TRANSPORTER: inhibition of DNP-SG uptake (DNP-SG: 0.015 uM, GSH: 15 mM) in membrane vesicles from MRP2-expressing MDCK cells

compound-structure-string	activity at 15 mM / %
N[C@@H](CCC(=O)N[C@@H](CS)C(=O)NCC(=O)O)C(=O)O	51
